- ASSAY_REMARKS: phase I study: plasma pharmacokinetics
- Format: in vivo, human
- CONDITION: human, plasma, oral
METRIC: half-life

Incoming: For COc1cc2cc(-c3ccc(CC(=O)Nc4cc(C(C)(C)C(F)(F)F)no4)cn3)cnc2cc1OC [BOS172738] , what is its reported half-life?
Outgoing: 41.9 to 84.1 h

---

- ASSAY_REMARKS: phase I study: plasma pharmacokinetics
- Assay type: in vivo, human
- CONDITION: human, plasma, oral, Tmax, cycle 1 day 15, range across dose levels
METRIC: Tmax

Incoming: // query Tmax value for entry `COc1cc2cc(-c3ccc(CC(=O)Nc4cc(C(C)(C)C(F)(F)F)no4)cn3)cnc2cc1OC`
Outgoing: 1 to 3.1 h

---

- ASSAY_REMARKS: phase I study: plasma pharmacokinetics
- Assay type: in vivo, human
- CONDITION: human, plasma, oral, Tmax, cycle 1 day 1, range across all dose levels
METRIC: Tmax

Incoming: Could you share which Tmax value was measured for COc1cc2cc(-c3ccc(CC(=O)Nc4cc(C(C)(C)C(F)(F)F)no4)cn3)cnc2cc1OC [BOS172738] ?
Outgoing: 3 to 10 h
